Data credit: patent US11065335B2

- PROCEDURE_DETAILS: in vitro
- TEST_CONTEXT: human, BXPC3 Cell Viability, vehicle alone 800 μM; 24 hrs
Below is a list of entries, each paired with its recorded viability value.

Qu. Given the entry `CNC[C@H](O)[C@@H](O)[C@H](O)[C@H](O)CO` , report its measured viability.
Ans. 85 to 95%

Qu. Given the entry CC(O)CN(CC(C)O)CC(C)O (centres unmarked) , report its measured viability.
Ans. > 95%

###

Below is a list of entries, each paired with its recorded viability at 24 h, 800 μM value.
- PROCEDURE_DETAILS: CellTiter Glo cell viability assay, BXPC3 cells
- TEST_CONTEXT: human, BXPC3 pancreatic cancer cells, BXPC3 Cell Viability, vehicle alone 800 μM

OCCNCCO ... 85 to 95%

Let us examine a further case.
Qu. Given the entry `NC(CO)(CO)CO` , report its measured viability at 24 h, 800 μM.
Ans. > 95%
